Sourced from patent US6372779B1

Exercise: state measured melting point for each of the compounds provided.

Below, 5 compounds whose answers are already recorded.
>>> measured("O=S(=O)(NCC(c1ccccc1)C(c1ccccc1)c1ccccc1)c1cccs1 (stereo not drawn)")
"169 to 170.9 °C"
>>> measured("CC(C)(C)C(=O)NCC1(c2ccccc2)CC1(c1ccccc1)c1ccccc1 (stereo not drawn)")
"121 to 122 °C"
>>> measured("O=C(Cc1ccc(C(F)(F)F)cc1)NCC(c1ccccc1)C(c1ccccc1)c1ccccc1 (stereo not drawn)")
"119.5 to 120.3 °C"
>>> measured("O=C(Cc1ccsc1)NCC1(c2ccccc2)CC1(c1ccccc1)c1ccccc1 (stereo not drawn)")
"130 to 135 °C"
>>> measured("CC(C)C(=O)NCC(c1ccccc1)C(c1ccccc1)c1ccccc1 (stereo not drawn)")
"114 to 115 °C"

Please look at the following compound next.
Reported melting point ( O=C(Cc1cccs1)NCC(c1ccc(Cl)cc1)C(c1ccccc1)c1ccccc1 (stereo not drawn) ) = 126.3 to 127 °C
